As shown below, each of these compounds has a reported inhibition at 10 µM value.
Tested on: HepG2
Assay Overview: Antiproliferative activity (MTS) on HepG2
Assay type: cell-based
Experimental Parameters: Homo sapiens, 10^-5 M, 72 hours, triplicate, read-out: percentage of inhibition of cell growth, HepG2
Where a name gives a salt, the structure may show the parent alone.
Reported Property: inhibition at 10 µM (%)

Compound | Reported Property | Unit Spec | Obs Value
Cc1c(C)c2c(c(C)c1OC(=O)CCCCCCCN)CCC(C)(COc1ccc(/C=C3\SC(=O)N(C)C3=O)cc1)O2 (racemic) [Compound B] | inhibition at 10 µM | % | 92
CC1(CN2C(=O)S/C(=C\c3cc(Br)c(O)c(Br)c3)C2=O)CCCCC1 [L, reference compound] | inhibition at 10 µM | % | 74
Cc1c(C)c2c(c(C)c1CCCCCCN)CCC(C)(COc1ccc(/C=C3\SC(=O)N(C)C3=O)cc1)O2 (racemic) [D, trifluoroacetate] | inhibition at 10 µM | % | 100
Cc1c(C)c2c(c(C)c1O)CCC(C)(CN1C(=O)S/C(=C\c3ccc(O)cc3)C1=O)O2 (racemic) [H] | inhibition at 10 µM | % | 79

Measured values drawn from patent US9522909B2 for this set.
